Target: Spermidine synthase (Plasmodium falciparum)
Experiment: Binding affinity to Plasmodium falciparum spermidine synthase by saturation transfer difference-NMR experiment
Active and inactive are the calls of the source. The rule behind the calls is not given here.
Pick one and only one: active, inactive

Recorded test call requested for `O=C(c1ccc2cn[nH]c2c1)N1CCN(c2ccccn2)CC1`
inactive

Recorded test call requested for `NC(=O)c1ncn([C@@H]2O[C@H](CO)[C@@H](O)[C@H]2O)n1`
inactive

Recorded test call requested for `Nc1nnc(SCC(=O)Nc2cccc(Oc3ccccc3)c2)[nH]1`
active

Recorded test call requested for `O=C(CSc1nnc[nH]1)c1ccc2c(c1)OCCO2`
inactive

Recorded test call requested for `O=C(c1ccc2[nH]cnc2c1)N1CCN(C/C=C/c2ccccc2)CC1`
active

Recorded test call requested for `CCCCc1nnc(NC(=O)CSc2nnc[nH]2)s1`
inactive

Recorded test call requested for `NC(=O)CSc1nc2ncnc(N)c2[nH]1`
active

Recorded test call requested for `O=C(CSc1cnn[nH]1)Nc1ncccn1`
inactive

Recorded test call requested for Nc1nnc(SCC(=O)NCC2CN(Cc3ccccc3)CCO2)s1 (configuration not stated)
inactive

Recorded test call requested for `N=c1c(N)c(O)ncn1CC(=O)c1ccc(I)cc1`
inactive

Recorded test call requested for `Nc1nc(N)nc(SCC(=O)NCc2ccc(F)cc2)n1`
inactive

Recorded test call requested for NCCSC1CC(=O)N(c2ccc(F)cc2)C1=O (configuration not stated)
inactive
